# TARGET OF ASSAY: ROCK1 (Homo sapiens (Human))
# Sequence (Q13464 whole entry, species assumed): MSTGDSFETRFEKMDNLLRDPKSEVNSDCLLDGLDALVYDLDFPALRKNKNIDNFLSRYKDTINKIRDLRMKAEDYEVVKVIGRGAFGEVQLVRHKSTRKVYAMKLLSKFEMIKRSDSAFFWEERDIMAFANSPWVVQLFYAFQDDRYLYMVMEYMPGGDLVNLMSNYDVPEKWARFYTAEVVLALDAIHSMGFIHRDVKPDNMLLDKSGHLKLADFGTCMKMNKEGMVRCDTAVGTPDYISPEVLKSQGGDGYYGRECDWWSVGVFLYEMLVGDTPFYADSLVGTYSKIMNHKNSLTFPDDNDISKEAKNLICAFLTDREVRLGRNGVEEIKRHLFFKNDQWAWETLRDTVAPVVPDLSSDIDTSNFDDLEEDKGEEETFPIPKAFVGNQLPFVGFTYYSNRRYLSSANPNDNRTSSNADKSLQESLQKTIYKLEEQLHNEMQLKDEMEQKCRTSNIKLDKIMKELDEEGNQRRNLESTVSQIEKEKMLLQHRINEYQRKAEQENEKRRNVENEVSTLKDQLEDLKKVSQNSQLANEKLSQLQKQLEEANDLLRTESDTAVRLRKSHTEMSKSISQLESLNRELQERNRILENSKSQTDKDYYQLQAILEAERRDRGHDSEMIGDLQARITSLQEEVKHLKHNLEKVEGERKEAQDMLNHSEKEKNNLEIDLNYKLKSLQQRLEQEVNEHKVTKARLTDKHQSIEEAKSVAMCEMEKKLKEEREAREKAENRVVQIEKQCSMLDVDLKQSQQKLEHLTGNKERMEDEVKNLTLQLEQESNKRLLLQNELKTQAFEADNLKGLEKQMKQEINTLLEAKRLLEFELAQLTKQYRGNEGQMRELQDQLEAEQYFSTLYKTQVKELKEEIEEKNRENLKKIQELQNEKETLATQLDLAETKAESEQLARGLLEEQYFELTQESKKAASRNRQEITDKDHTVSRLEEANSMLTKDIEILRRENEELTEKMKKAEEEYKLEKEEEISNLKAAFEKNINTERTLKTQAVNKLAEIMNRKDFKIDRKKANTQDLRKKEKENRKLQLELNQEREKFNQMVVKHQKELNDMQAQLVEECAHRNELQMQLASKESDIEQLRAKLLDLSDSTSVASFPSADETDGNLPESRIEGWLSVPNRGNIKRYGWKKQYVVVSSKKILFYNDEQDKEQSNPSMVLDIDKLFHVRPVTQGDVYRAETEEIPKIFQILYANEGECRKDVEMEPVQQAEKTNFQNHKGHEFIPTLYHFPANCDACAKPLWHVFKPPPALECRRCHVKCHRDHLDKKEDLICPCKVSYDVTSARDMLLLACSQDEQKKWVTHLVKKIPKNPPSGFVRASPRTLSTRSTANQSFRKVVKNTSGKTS
pIC50: −log10 of the molar value.
Response key: 1 means pIC50 >= 7; -1 means pIC50 < 7.

These recorded examples may help you get a feel for the data.
MOLECULE	CLASS
C[C@@H](NC(=O)c1ccc(-c2cn[nH]c2)c(O)c1)c1ccc(F)cc1 [Example 183]	1
COC[C@@H](NC(=O)c1ccc(-c2cn[nH]c2)c(OC)c1)c1ccccc1 [Example 157]	1

Here is the next item to consider.
pIC50 >= 7 for COc1c(-c2cn[nH]c2)ccc(C(=O)N[C@H](CO)c2c(F)cccc2F)c1F [Example 199] ? -1

---

# TARGET OF ASSAY: ROCK2 (Homo sapiens (Human), UniProt O75116)
# Sequence (O75116 whole entry, species assumed): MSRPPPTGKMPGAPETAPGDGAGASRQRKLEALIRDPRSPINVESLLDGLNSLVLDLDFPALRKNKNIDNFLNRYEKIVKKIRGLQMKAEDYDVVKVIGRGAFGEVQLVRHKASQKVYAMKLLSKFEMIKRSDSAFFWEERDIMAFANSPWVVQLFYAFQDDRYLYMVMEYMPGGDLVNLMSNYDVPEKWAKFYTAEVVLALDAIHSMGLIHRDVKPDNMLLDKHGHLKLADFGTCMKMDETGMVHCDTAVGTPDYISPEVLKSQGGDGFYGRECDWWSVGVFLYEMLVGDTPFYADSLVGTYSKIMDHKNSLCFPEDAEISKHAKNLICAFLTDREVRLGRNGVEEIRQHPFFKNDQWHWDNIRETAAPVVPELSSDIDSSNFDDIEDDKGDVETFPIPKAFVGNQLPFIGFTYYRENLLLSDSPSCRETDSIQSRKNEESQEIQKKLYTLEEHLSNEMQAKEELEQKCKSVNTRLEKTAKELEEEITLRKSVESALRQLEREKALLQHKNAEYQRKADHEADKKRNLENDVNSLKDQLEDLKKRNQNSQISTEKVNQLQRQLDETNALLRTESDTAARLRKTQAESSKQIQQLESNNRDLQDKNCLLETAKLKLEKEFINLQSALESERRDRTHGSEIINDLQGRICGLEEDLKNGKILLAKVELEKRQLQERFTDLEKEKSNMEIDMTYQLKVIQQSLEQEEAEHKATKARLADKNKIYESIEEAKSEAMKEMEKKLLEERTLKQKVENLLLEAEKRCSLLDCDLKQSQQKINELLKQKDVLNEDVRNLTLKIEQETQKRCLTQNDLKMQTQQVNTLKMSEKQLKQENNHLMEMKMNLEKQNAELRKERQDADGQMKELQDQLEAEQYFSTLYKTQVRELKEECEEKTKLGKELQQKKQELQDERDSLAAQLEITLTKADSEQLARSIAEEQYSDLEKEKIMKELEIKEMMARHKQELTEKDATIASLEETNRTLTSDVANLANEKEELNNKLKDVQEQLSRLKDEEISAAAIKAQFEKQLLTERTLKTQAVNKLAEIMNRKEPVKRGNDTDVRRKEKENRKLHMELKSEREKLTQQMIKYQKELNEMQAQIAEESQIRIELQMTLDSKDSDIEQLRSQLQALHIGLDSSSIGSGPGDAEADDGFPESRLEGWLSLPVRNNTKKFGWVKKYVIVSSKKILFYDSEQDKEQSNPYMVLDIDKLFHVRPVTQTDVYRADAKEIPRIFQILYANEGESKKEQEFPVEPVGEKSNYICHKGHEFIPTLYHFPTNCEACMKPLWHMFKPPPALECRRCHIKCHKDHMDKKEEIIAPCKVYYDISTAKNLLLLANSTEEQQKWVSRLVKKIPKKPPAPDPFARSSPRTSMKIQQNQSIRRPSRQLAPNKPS
Strictly below 3 nM in IC50: class 1. Otherwise: class 0.

COMPOUND	CLASS
COc1cc(C(=O)NCc2ccccc2)ccc1-c1cn[nH]c1	class 1
Cc1cc(C(=O)N[C@H](CN(C)C)c2ccccc2)ccc1-c1cn[nH]c1	class 0
COc1cc(C(=O)NC(CN)Cc2ccccc2)ccc1-c1cn[nH]c1 (stereo not drawn)	class 1

I'd appreciate it if you could check whether COc1cc(-c2cn[nH]c2)ccc1C(=O)N[C@H](CCO)c1ccccc1 has IC50 smaller than 3 nM. class 1

I'd appreciate it if you could check whether COc1cccc([C@@H](C)NC(=O)c2ccc(-c3cn[nH]c3)cc2S(C)(=O)=O)c1 has IC50 smaller than 3 nM. class 0

I'd appreciate it if you could check whether COc1cc(C(=O)NC(C)c2cccc(O)n2)ccc1-c1cn[nH]c1 (stereo not drawn) has IC50 smaller than 3 nM. class 0

I'd appreciate it if you could check whether CNC(=O)c1cccc(CNC(=O)c2ccc(-c3cn[nH]c3)c(OC)c2)c1 has IC50 smaller than 3 nM. class 1

I'd appreciate it if you could check whether COc1cc(C(=O)NCc2ccc(Cl)cc2SCC(C)C)ccc1-c1cn[nH]c1 has IC50 smaller than 3 nM. class 0

I'd appreciate it if you could check whether COc1cc(C(=O)NCc2c(F)cc(F)cc2F)ccc1-c1cn[nH]c1 has IC50 smaller than 3 nM. class 0

---

Give measured pIC50 for each item. Keep answers brief.
# TARGET OF ASSAY: ROCK1 (Homo sapiens (Human))
# PROCEDURE SUMMARY: ROCK assay (Caliper LABCHIP peptide phosphorylation), ROCK1;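 further: Read-out is separation of phosphorylated from unphosphorylated peptide, with kinase activity inhibition computed at every concentration of a dose-response series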
# Assay type: biochemical
# PROTOCOL CONDITIONS: 5 μM ATP, 1.5 μM peptide substrate
One number for each entry, as −log10 of the molar value.

COMPOUND	pIC50
COc1cc(C(=O)N[C@H](CO)Cc2ccccc2)ccc1-c1cn[nH]c1 [Example 128]	7.90
C=C[C@@H](NC(=O)c1ccc(-c2cn[nH]c2)c(OC)c1)c1c(F)cccc1F [Example 170]	7.76
COc1cc(C(=O)NCc2cc(F)ccc2F)ccc1-c1cn[nH]c1 [Example 69]	7.73
COc1cc(C(=O)NCc2cc(F)c(F)c(F)c2)ccc1-c1cn[nH]c1 [Example 75]	7.47
N#Cc1cc(C(=O)N[C@H](CO)c2c(F)cccc2F)ccc1-c1cn[nH]c1 [Example 198]	6.40

Please supply pIC50 for each of the following items, keeping them in order.
1. CC(O)c1cc(C(=O)NC(C)c2ccccc2F)ccc1-c1cn[nH]c1 (stereo not drawn) [Example 278]
2. COc1cc(C(=O)NCCc2cccc(O)c2)ccc1-c1cn[nH]c1 [Example 124]
3. COC(=O)c1cc(CNC(=O)c2ccc(-c3cn[nH]c3)c(OC)c2)ccc1F [Example 134]
4. COc1cc(C(=O)NC(Cc2ccccc2)C(C)=O)ccc1-c1cn[nH]c1 (stereo not drawn) [Example 187]
5. COc1cc(C(=O)NCc2ccc(F)c(OC)c2F)ccc1-c1cn[nH]c1 [Example 50]
6. CCC(O)c1cc(C(=O)N[C@H](C)c2ccccc2)ccc1-c1cn[nH]c1 (stereo partly drawn) [Example 286]

1. 5.75
2. 7.67
3. 8.19
4. 7.64
5. 7.19
6. 7.01

Please supply pIC50 for each of the following items, keeping them in order.
1. COc1cc(C(=O)NCCc2ccccc2Cl)ccc1-c1cn[nH]c1 [Example 35]
2. COC(=O)c1cccc(CNC(=O)c2ccc(-c3cn[nH]c3)c(C)c2)c1 [Example 108]
3. COc1cc(C(=O)NCc2ccc(C#N)cc2)ccc1-c1cn[nH]c1 [Example 143]
4. COc1cccc(CNC(=O)c2ccc(-c3c[nH]nc3C)c(OC)c2)c1 [Example 56]
5. COc1cccc([C@@H](C)NC(=O)c2ccc(-c3c(C)n[nH]c3C)cc2OC)c1 [Example 304]

[7.78, 7.86, 6.44, 6.34, 6.88]

Please supply pIC50 for each of the following items, keeping them in order.
1. COc1cc(-c2cn[nH]c2)ccc1C(=O)NCc1c(F)cccc1F [Example 207]
2. COc1cc(C(=O)NCc2c(F)cc(F)cc2F)ccc1-c1cn[nH]c1 [Example 89]
3. COc1cc(C(=O)NCCc2cccc(C(F)(F)F)c2)ccc1-c1cn[nH]c1 [Example 120]
4. COc1ccc(F)c(C(C)NC(=O)c2ccc(-c3cn[nH]c3)c(OC)c2)c1 (stereo not drawn) [Example 140]
5. COc1cc(-c2cn[nH]c2)ccc1C(=O)NCc1cccc(S(N)(=O)=O)c1 [Example 230]
6. COc1ccc(F)c(C(C)NC(=O)c2ccc(-c3c[nH]nc3C)cc2OC)c1 (stereo not drawn) [Example 147]
7. COc1cc(C(=O)NCc2cccc(C(=O)Nc3nc4c(s3)CN(C)CC4)c2)ccc1-c1cn[nH]c1 [Example 247]

8.37
7.66
7.02
8.47
7.95
7.63
9.41

Please supply pIC50 for each of the following items, keeping them in order.
1. COc1cc(C(=O)NCc2ccc(Cl)cc2Cl)ccc1-c1cn[nH]c1 [Example 93]
2. Cc1cc(C(=O)N[C@H](CN)c2ccccc2)ccc1-c1cn[nH]c1 [Example 256]
3. COc1cc(C(=O)NCCc2ccccc2)ccc1-c1cn[nH]c1 [Example 36]
4. COc1ccc(F)c(C(C)NC(=O)c2ccc(-c3c[nH]nc3C)cc2OC)c1 (stereo not drawn) [Example 152]
5. COc1cc(C(=O)NCc2ccc(F)cc2Cl)ccc1-c1cn[nH]c1 [Example 41]
6. COc1cc(C(=O)NCc2c(F)ccc(C)c2F)ccc1-c1cn[nH]c1 [Example 80]
7. COc1cc(C(=O)NCc2ccccn2)ccc1-c1cn[nH]c1 [Example 15]

7.00
8.47
7.55
5.82
8.47
7.88
6.74

Please supply pIC50 for each of the following items, keeping them in order.
1. Cc1cc(C(=O)NCc2c(F)cccc2Cl)ccc1-c1cn[nH]c1 [Example 151]
2. O=C(NCc1ccccc1)c1ccc(-c2cn[nH]c2)cc1CCO [Example 211]
3. C[C@@H](NC(=O)c1ccc(-c2cn[nH]c2)c(C#N)c1)c1ccc(F)cc1 [Example 193]

[7.71, 5.73, 6.06]

Please supply pIC50 for each of the following items, keeping them in order.
1. COc1cc(C(=O)NCc2cccnc2)ccc1-c1cn[nH]c1 [Example 19]
2. COc1cc(C(=O)NC(C)c2cccc(CN3CCN(C)CC3)c2)ccc1-c1cn[nH]c1 (racemic) [Example 81]
3. COc1cc(C(=O)N[C@H](C)c2ccc3ccccc3c2)ccc1-c1cn[nH]c1 [Example 74]

1: 6.98; 2: 6.81; 3: 7.44

---

# TARGET OF ASSAY: ROCK2 (Homo sapiens (Human));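 further: reaction stopped with EDTA, then phosphorylated and unphosphorylated peptide resolved by microfluidic electrophoresis, kinase inhibition computed at each compound concentration in dose-response series, DMSO under 2%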
pIC50: −log10 of the molar value.
Response key: 1 means pIC50 >= 8; 0 means pIC50 < 8.

These recorded examples may help you get a feel for the data.
COMPOUND	TARGET OF ASSAY	CLASS
CCNC(=O)c1cccc(CNC(=O)c2ccc(-c3cn[nH]c3)c(OC)c2)c1	ROCK2 (Homo sapiens (Human))	1
COC(=O)c1cccc(CNC(=O)c2ccc(-c3cn[nH]c3)c(C)c2)c1	ROCK2 (Homo sapiens (Human))	1
C[C@@H](NC(=O)c1ccc(-c2cn[nH]c2)c(CO)c1)c1ccc(F)cc1	ROCK2 (Homo sapiens (Human))	0
COc1cccc(CNC(=O)c2ccc(-c3c[nH]nc3C)c(OC)c2)c1	ROCK2 (Homo sapiens (Human))	0
COc1cc(-c2cn[nH]c2)ccc1C(=O)NCc1cccc(S(N)(=O)=O)c1	ROCK2 (Homo sapiens (Human))	1

pIC50 >= 8 for COc1cc(C(=O)NCc2cccc(-c3ccccc3)c2)ccc1-c1cn[nH]c1 ? 0

pIC50 >= 8 for COc1cc(C(=O)NCc2cccc(F)c2)ccc1-c1cn[nH]c1 ? 1

pIC50 >= 8 for COc1cccc([C@@H](C)NC(=O)c2ccc(-c3c(C)n[nH]c3C)cc2OC)c1 ? 0

pIC50 >= 8 for N#Cc1cc(C(=O)N[C@H](CO)c2c(F)cccc2F)ccc1-c1cn[nH]c1 ? 0

pIC50 >= 8 for COc1cc(C(=O)NCc2ccc3nc(N)sc3c2)ccc1-c1cn[nH]c1 ? 0

pIC50 >= 8 for COc1cc(-c2cn[nH]c2)ccc1C(=O)NC(CO)c1ccccc1F (stereo not drawn) ? 1

pIC50 >= 8 for COc1cc(C(=O)NCc2cccc(C(=O)O)c2)ccc1-c1cn[nH]c1 ? 1

pIC50 >= 8 for COC[C@@H](NC(=O)c1ccc(-c2cn[nH]c2)c(OC)c1)c1ccccc1 ? 1
